# pIC50 annotations
Tested on: CGTH-W-1;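 further: growth inhibition of human CGTH-W-1 cells measured by cell viability assay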
Assay: cells
Assay type: functional, cell-based
Settings: Homo sapiens
Description: SANGER: Inhibition of human CGTH-W-1 cell growth in a cell viability assay.
pIC50: −log10 of the molar value.

# example entries with known answers
compound	tested-system	pIC50
COc1cc(Nc2c(C#N)cnc3cc(OCCCN4CCN(C)CC4)c(OC)cc23)c(Cl)cc1Cl	CGTH-W-1	< 5.70
CCn1c(-c2nonc2N)nc2cnc(Oc3cccc(NC(=O)c4ccc(OCCN5CCOCC5)cc4)c3)cc21 [GSK-269962A]	CGTH-W-1	< 5.60
COc1cc(C)c(Sc2cnc(NC(=O)c3ccc(CNC(C)C(C)(C)C)cc3)s2)cc1C(=O)N1CCN(C(C)=O)CC1 (centres undefined)	CGTH-W-1	< 4.99

**Query** Report pIC50 on CGTH-W-1 for this entry: Cc1ccc(NC(=O)c2cccc(C(C)(C)C#N)c2)cc1Nc1ccc2ncn(C)c(=O)c2c1
**Result** 6.92
